Data origin, for the record: patent US11396516B2

- target or system: CYP1A (Homo sapiens (Human))
- Sequence (P05177 whole entry): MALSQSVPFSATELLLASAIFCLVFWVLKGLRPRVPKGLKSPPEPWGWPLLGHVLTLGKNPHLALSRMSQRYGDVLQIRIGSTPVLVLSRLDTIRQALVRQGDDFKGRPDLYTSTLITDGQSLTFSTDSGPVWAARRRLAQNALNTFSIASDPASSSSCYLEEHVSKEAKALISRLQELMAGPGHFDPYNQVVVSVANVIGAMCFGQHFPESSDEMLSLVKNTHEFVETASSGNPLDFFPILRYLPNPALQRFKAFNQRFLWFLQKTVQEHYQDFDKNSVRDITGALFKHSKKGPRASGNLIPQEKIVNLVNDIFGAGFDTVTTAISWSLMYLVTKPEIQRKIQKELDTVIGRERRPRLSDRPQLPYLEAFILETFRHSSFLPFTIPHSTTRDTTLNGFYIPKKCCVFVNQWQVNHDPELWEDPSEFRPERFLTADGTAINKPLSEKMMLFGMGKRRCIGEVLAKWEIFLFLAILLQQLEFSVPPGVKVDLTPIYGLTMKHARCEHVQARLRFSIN
- test name: CYP inhibition assay, human liver microsomes
- Assay type: biochemical
- recorded conditions: human liver microsomes, phenacetin 10 μM; read-out: IC50 (M) CYP1A
quantity kind: IC50 (M)
A number alone suffices; assume M.

For this molecule ( `CC(C)(C)OC(=O)NCCCOc1c2ccoc2cc2oc(=O)ccc12` ), measured IC50 is 1.6e-06

###

- target or system: CYP2B6 (Homo sapiens (Human), UniProt P20813)
- Sequence (P20813 whole entry): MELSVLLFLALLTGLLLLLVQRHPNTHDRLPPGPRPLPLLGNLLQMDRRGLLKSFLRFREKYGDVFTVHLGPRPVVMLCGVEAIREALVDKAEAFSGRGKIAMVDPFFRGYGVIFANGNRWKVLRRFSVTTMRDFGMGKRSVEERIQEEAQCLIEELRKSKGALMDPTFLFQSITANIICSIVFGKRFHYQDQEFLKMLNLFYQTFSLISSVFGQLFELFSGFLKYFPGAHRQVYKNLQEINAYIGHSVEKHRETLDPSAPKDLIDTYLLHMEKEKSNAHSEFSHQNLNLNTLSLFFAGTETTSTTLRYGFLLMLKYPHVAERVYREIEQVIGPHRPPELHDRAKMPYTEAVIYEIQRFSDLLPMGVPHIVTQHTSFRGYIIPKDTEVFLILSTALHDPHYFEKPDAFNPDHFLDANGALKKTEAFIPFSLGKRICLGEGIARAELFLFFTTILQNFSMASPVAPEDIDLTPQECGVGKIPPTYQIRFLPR
- test name: CYP inhibition assay, human liver microsomes
- Type: biochemical
- recorded conditions: buproprion 100 μM
quantity kind: IC50
Numeric answer plus unit only.

The value of IC50 recorded for CC(C)(C)OC(=O)NCCCOc1c2ccoc2cc2oc(=O)ccc12 [Example 2] when tested on CYP2B6 (Homo sapiens (Human), UniProt P20813) reads 88 µM

###

- target or system: CYP3A (Homo sapiens, UniProt P08684)
- Sequence (P08684 2-503 limits assumed): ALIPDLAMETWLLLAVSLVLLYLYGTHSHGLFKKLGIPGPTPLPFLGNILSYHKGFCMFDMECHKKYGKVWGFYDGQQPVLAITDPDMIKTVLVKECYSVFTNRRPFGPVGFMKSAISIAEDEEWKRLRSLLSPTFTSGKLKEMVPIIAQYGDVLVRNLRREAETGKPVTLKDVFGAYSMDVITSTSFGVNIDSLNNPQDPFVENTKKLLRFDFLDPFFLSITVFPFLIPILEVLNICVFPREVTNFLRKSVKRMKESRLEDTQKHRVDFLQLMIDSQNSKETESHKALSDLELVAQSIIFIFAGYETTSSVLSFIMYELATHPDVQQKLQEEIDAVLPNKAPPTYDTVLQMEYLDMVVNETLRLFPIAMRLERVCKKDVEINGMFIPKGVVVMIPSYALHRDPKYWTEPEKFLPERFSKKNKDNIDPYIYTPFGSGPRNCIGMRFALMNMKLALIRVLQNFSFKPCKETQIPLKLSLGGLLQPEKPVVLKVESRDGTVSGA
- test name: CYP inhibition assay, human liver microsomes
- Format: biochemical
- recorded conditions: probe testosterone 50 μM
quantity kind: IC50 (µM)
A number alone suffices; assume µM.

For this compound ( `CC(C)(C)OC(=O)NCCCOc1c2ccoc2cc2oc(=O)ccc12` ), measured IC50 is 9.3

###

- Test system: zebrafish embryos treated with DOX (cardiomyopathy phenotype)
- test name: Zebrafish doxorubicin cardiomyopathy model (rescue from phenotype)
- Assay type: in vivo
- recorded conditions: Danio rerio; rescue from DOX (100 μM) cardiomyopathy phenotype, 40 hours post-treatment; read-out: EC50 is zebrafish
quantity kind: pEC50
Please express pEC50 as -log10 of the molar concentration.

CC(C)(C)OC(=O)N1CC(COc2c3ccoc3cc3oc(=O)ccc23)C1 [Example 4]; 8.00
O=c1ccc2c(OCC3CO3)c3ccoc3cc2o1 (stereo not shown) [Example 1]; 7.28

The value of pEC50 recorded for CC(C)(C)OC(=O)NCCOc1c2ccoc2cc2oc(=S)ccc12 [Example 7] when tested on zebrafish embryos treated with DOX (cardiomyopathy phenotype) reads 6.59

The value of pEC50 recorded for CC(C)(C)OC(=O)NCCCOc1c2ccoc2cc2oc(=O)ccc12 [Example 2] when tested on zebrafish embryos treated with DOX (cardiomyopathy phenotype) reads 8.15

The value of pEC50 recorded for CC(C)(C)OC(=O)NCCOc1c2ccoc2cc2oc(=O)ccc12 [Example 3] when tested on zebrafish embryos treated with DOX (cardiomyopathy phenotype) reads 8.52

The value of pEC50 recorded for O=C(NCCCOc1c2ccoc2cc2oc(=O)ccc12)Oc1ccccc1 [Example 6] when tested on zebrafish embryos treated with DOX (cardiomyopathy phenotype) reads 7.48

The value of pEC50 recorded for CCSC(=O)NCCOc1c2ccoc2cc2oc(=O)ccc12 [Example 5] when tested on zebrafish embryos treated with DOX (cardiomyopathy phenotype) reads 8.52

###

- target or system: CYP2C19 (Homo sapiens (Human))
- Sequence (P33261 whole entry): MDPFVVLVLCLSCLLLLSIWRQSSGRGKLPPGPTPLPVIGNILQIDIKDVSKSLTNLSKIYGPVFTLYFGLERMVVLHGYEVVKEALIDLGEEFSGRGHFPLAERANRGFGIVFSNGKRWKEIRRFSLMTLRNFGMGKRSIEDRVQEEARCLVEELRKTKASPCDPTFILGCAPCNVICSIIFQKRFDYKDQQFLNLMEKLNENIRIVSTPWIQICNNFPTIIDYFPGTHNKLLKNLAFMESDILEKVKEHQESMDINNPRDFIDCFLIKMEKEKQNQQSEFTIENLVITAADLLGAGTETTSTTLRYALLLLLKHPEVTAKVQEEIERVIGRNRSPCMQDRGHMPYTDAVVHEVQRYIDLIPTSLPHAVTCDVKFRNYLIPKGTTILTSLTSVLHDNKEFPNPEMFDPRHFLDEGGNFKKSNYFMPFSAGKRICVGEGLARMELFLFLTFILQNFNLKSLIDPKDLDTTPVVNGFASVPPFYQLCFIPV
- test name: CYP inhibition assay, human liver microsomes
- Format: biochemical
- recorded conditions: omeprazole 0.5 μM
quantity kind: IC50 (µM)
A number alone suffices; assume µM.

For this compound ( CC(C)(C)OC(=O)NCCCOc1c2ccoc2cc2oc(=O)ccc12 [Example 2] ), measured IC50 is 12
